Assign pIC50 to each entry below.
Tested on: MM200
Assay: MTT cytotoxicity assay
Type: cell-based, Human
Details: Homo sapiens, 72 h, MM200, 72 h treatment, MTT
Notebook: values listed as pIC50 are -log10 of the concentration (mol/L).

Field request: pIC50 | item: `O=c1c2ccccc2c(=O)c2c1sc1c(=O)c3ccccc3c(=O)c12`
5.87

Field request: pIC50 | item: `NCCCCCCNC(=O)CCc1ccc2c(=O)c3sc4c(=O)c5ccccc5c(=O)c4c3c(=O)c2c1`
5.94

Field request: pIC50 | item: `O=C(O)CCc1ccc2c(=O)c3sc4c(=O)c5ccccc5c(=O)c4c3c(=O)c2c1`
5.84

Field request: pIC50 | item: CC(C)(O)C(O)CCc1ccc2c(=O)c3sc4c(=O)c5ccccc5c(=O)c4c3c(=O)c2c1 (centres unmarked)
6.12

Field request: pIC50 | item: `N[C@H]1CCN(C(=O)CCc2ccc3c(=O)c4sc5c(=O)c6ccccc6c(=O)c5c4c(=O)c3c2)C1`
6.52

###

Assign pIC50 to each entry below.
Tested on: MCF7
Assay: MTT cytotoxicity assay
Assay type: cell-based, Human
Details: Homo sapiens; MCF7, 72 h treatment, MTT
Notebook: values listed as pIC50 are -log10 of the concentration (mol/L).

Request - read-out pIC50 | tested on MCF7 | compound `N[C@H]1CCN(C(=O)CCc2ccc3c(=O)c4sc5c(=O)c6ccccc6c(=O)c5c4c(=O)c3c2)C1`
6.31

Request - read-out pIC50 | tested on MCF7 | compound `O=c1c2ccccc2c(=O)c2c1sc1c(=O)c3ccccc3c(=O)c12`
5.48

Request - read-out pIC50 | tested on MCF7 | compound `NCCCCCCNC(=O)CCc1ccc2c(=O)c3sc4c(=O)c5ccccc5c(=O)c4c3c(=O)c2c1`
6.00

Request - read-out pIC50 | tested on MCF7 | compound `O=C(O)CCc1ccc2c(=O)c3sc4c(=O)c5ccccc5c(=O)c4c3c(=O)c2c1`
5.72

Request - read-out pIC50 | tested on MCF7 | compound CC(C)(O)C(O)CCc1ccc2c(=O)c3sc4c(=O)c5ccccc5c(=O)c4c3c(=O)c2c1 (stereo not drawn)
6.14

Request - read-out pIC50 | tested on MCF7 | compound COc1cccc2c1C(=O)c1c(O)c3c(c(O)c1C2=O)C[C@@](O)(C(=O)CO)C[C@@H]3O[C@H]1C[C@H](N)[C@H](O)[C@H](C)O1 [DOX, doxorubicin, reference compound]
6.25

###

Tested on: SK-MEL-19
Experiment: MTT cytotoxicity assay
Type: cell-based, Human
Settings: Homo sapiens, SK-MEL19; SK-MEL-19, 72 h treatment, MTT
Assign pIC50 to each entry below.
Notebook: values listed as pIC50 are -log10 of the concentration (mol/L).

Field request: pIC50 | item: `O=C(O)CCc1ccc2c(=O)c3sc4c(=O)c5ccccc5c(=O)c4c3c(=O)c2c1`
6.96

Field request: pIC50 | item: COc1cccc2c1C(=O)c1c(O)c3c(c(O)c1C2=O)C[C@@](O)(C(=O)CO)C[C@@H]3O[C@H]1C[C@H](N)[C@H](O)[C@H](C)O1 [DOX, doxorubicin, reference compound]
6.41

Field request: pIC50 | item: `O=c1c2ccccc2c(=O)c2c1sc1c(=O)c3ccccc3c(=O)c12`
7.22

Field request: pIC50 | item: CC(C)(O)C(O)CCc1ccc2c(=O)c3sc4c(=O)c5ccccc5c(=O)c4c3c(=O)c2c1 (stereo not drawn)
7.40

Field request: pIC50 | item: `N[C@H]1CCN(C(=O)CCc2ccc3c(=O)c4sc5c(=O)c6ccccc6c(=O)c5c4c(=O)c3c2)C1`
7.40

Field request: pIC50 | item: `NCCCCCCNC(=O)CCc1ccc2c(=O)c3sc4c(=O)c5ccccc5c(=O)c4c3c(=O)c2c1`
6.49
